Where these numbers come from: patent US20130296311A1

# Test system: HCV 1b_Huh-Luc/Neo-ET cell line persistently expressing a bicistronic genotype 1b replicon in Huh 7 cells
# EXPERIMENT_NOTES: HCV replicon assay (luciferase readout, 72 h)
# Format: cell-based, HCV genotype 1b
# APPLIED_CONDITIONS: Hepatitis C virus, Huh-7, 72 h, read-out: Inhibition of HCV genotype 1b
Reported EC50 values follow for various compounds

COMPOUND	EC50
CCN(CC)[C@@H](C(=O)N1CCC[C@H]1c1ncc(-c2ccc(C#Cc3ccc(-c4cnc([C@@H]5CCCN5C(=O)[C@@H](NC(=O)OC)C(C)C)[nH]4)cc3)cc2)[nH]1)c1ccccc1 [Compound 985]	< 1 nM
O=C(N[C@@H](C(=O)N1CCC[C@H]1c1ncc(C#Cc2ccc(C#Cc3cnc([C@@H]4CCCN4C(=O)[C@H](NC(=O)C4CC4)c4ccccc4)[nH]3)cc2)[nH]1)c1ccccc1)C1CC1 [Compound 303]	< 1 nM
COC(=O)N[C@@H](C(=O)N1CCC[C@H]1c1ncc(-c2ccc(C#Cc3ccc(-c4cnc([C@@H]5CCCN5C(=O)Nc5ccccc5)[nH]4)cc3)cc2)[nH]1)c1ccccc1 [Compound 196]	1 to 9.9 nM
COC(=O)N[C@@H](C(=O)N1CCC[C@H]1c1ncc(-c2ccc(C#Cc3ccc(-c4cnc([C@@H]5CCCN5C(=O)[C@H](NC(=O)OC)c5ccccc5)[nH]4)cc3)cc2)[nH]1)c1ccccc1 [Compound 156]	< 1 nM

Bench note: what EC50 did COC(=O)N[C@H](C(=O)N[C@H](c1ncc(-c2ccc(C#Cc3ccc(-c4cnc([C@@H]5CCCN5C(=O)[C@@H](NC(=O)OC)C(C)C)[nH]4)cc3)cc2)[nH]1)C(C)C)C(C)C [Compound 276] show?
1 to 9.9 nM
